Below, each entry is listed with its recorded Plant response rating, Corn.
test system: corn; test: Test B pre/postemergence corn; type: in vivo, Zea mays; settings: Preemergence, Rate 250 g/ha; scale of 0 to 10 where 0 is no effect and 10 is complete control
Answer with the value's number alone.

# count of solved cases: 2
Cc1cccc(C)c1-n1c(=O)on(C(=O)N(c2ccccc2)C(C)C)c1=O [Compound 46]; 0
CC(C)Oc1cc(-n2c(=O)on(C(=O)N(c3ccc(F)cc3)C(C)C)c2=O)c(Cl)cc1Cl [Compound 43]; 0

Next molecule, please.
Using the record for CC(C)N(C(=O)n1oc(=O)n(Cc2cccs2)c1=O)c1ccccc1 [Compound 103] , report its Plant response rating, Corn.
0

----------
tested on: pigweed; assay: Test B pre/postemergence pigweed; type: in vivo, Amaranthus retroflexus; settings: Postemergence, Rate 250 g/ha; scale 0 to 10, 0 no effect, 10 complete control
reportedEndpoint: Redroot pigweed plant response rating
Answer with the value's number alone.

# count of solved cases: 3
CC(C)N(C(=O)n1oc(=O)n(-c2ccc(OC(F)(F)F)cc2)c1=O)C1=CCOCC1; 0
CC(C)N(C(=O)n1oc(=O)n(-c2cc(Cl)cc(Cl)c2)c1=O)C1=CCOCC1; 0
Cc1ccccc1-n1c(=O)on(C(=O)N(c2ccc(Cl)cc2)C(C)C)c1=O; 3

Using the record for CCc1ccccc1-n1c(=O)on(C(=O)N(c2ccc(F)cc2F)C(C)C)c1=O , report its Redroot pigweed plant response rating.
0

----------
tested on: blackgrass; assay: Test B pre/postemergence blackgrass; assay type: in vivo, Alopecurus myosuroides; details: Preemergence, Rate 500 g/ha; scale 0 to 10, 0 is no effect, 10 is complete control
reportedEndpoint: Blackgrass plant response rating
Answer with the value's number alone.

# count of solved cases: 2
CC(C)C(=O)Cn1c(=O)on(C(=O)N(c2ccc(Cl)cc2)C(C)C)c1=O; 9
C=CC[Si](C)(C)Cn1c(=O)on(C(=O)N(c2ccc(F)cc2)C(C)C)c1=O; 9

Record CC(C)N(C(=O)n1oc(=O)n(CCCl)c1=O)c1ccc(Cl)cc1 : what is its Blackgrass plant response rating with blackgrass?
9

----------
system: wheat; test: Test B pre/postemergence wheat; assay type: in vivo, Triticum aestivum; conditions: Preemergence, Rate 500 g/ha; scale 0 to 10, 0 is no effect, 10 is complete control
Below, each entry is listed with its recorded Wheat plant response rating.
Answer with the value's number alone.

# count of solved cases: 3
COC(=O)C(C)n1c(=O)on(C(=O)N(c2ccc(F)cc2F)C(C)C)c1=O (stereo not shown); 0
CC(C)N(C(=O)n1oc(=O)n(C(C)C2CC2)c1=O)c1ccc(F)cc1 (stereo not shown); 5
CC(C)N(C(=O)n1oc(=O)n(CCC[Si](C)(C)C)c1=O)c1ccc(F)cc1; 0

Next molecule, please.
Using the record for CCOC(=O)CC(C(=O)OCC)n1c(=O)on(C(=O)N(c2ccc(F)cc2F)C(C)C)c1=O (stereo not shown) , report its Wheat plant response rating.
0

----------
test system: bedstraw; test: Test B pre/postemergence bedstraw; assay type: in vivo, Galium aparine; settings: Rate 250 g/ha, Postemergence; scale of 0 to 10 where 0 is no effect and 10 is complete control
reportedEndpoint: Plant response rating, Bedstraw
Answer with the value's number alone.

# count of solved cases: 2
Cc1c(-n2c(=O)on(C(=O)N(c3ccc(F)cc3F)C(C)C)c2=O)ccc2ccccc12; 2
Cc1ccccc1-n1c(=O)on(C(=O)N(c2ccc(C(C)(C)C)cc2)C(C)C)c1=O; 0

Next compound, please.
Using the record for C=CCn1c(=O)on(C(=O)N(c2ccc(F)cc2)C(C)C(=O)OCC)c1=O (stereo not drawn) , report its Plant response rating, Bedstraw.
0

----------
test system: green foxtail; assay: Test E green foxtail; assay type: in vivo, Setaria viridis; conditions: Preemergence; Rate 1000 g/ha; 0 to 100 scale where 0 is no effect and 100 is complete control
reportedEndpoint: Plant response rating, Green foxtail
Answer with the value's number alone.

# count of solved cases: 2
CC(C)N(C(=O)n1oc(=O)n(Cc2cccs2)c1=O)c1ccccc1; 100
Cc1ccccc1Cn1c(=O)on(C(=O)N(c2ccc(F)cc2)C(C)C)c1=O; 85

Record CC(C)N(C(=O)n1oc(=O)n(Cc2ccco2)c1=O)c1ccc(F)cc1 : what is its Plant response rating, Green foxtail with green foxtail?
100

----------
system: surinam grass; assay: Test B pre/postemergence surinam grass; assay type: in vivo, Brachiaria decumbens; details: Postemergence, Rate 250 g/ha; scale 0 to 10, 0 no effect, 10 complete control
reportedEndpoint: B. signalgrass plant response rating
Answer with the value's number alone.

# count of solved cases: 8
CCOC(=O)CC(C(=O)OCC)n1c(=O)on(C(=O)N(c2ccc(F)cc2F)C(C)C)c1=O (stereo not drawn) [Compound 465]; 0
C=CC[Si](C)(C)Cn1c(=O)on(C(=O)N(c2ccc(F)cc2)C(C)C)c1=O [Compound 426]; 7
COC(CCl)n1c(=O)on(C(=O)N(c2ccc(Cl)cc2)C(C)C)c1=O (stereo not drawn) [Compound 458]; 0
CC(C)N(C(=O)n1oc(=O)n(-c2cc(Cl)cc(Cl)c2)c1=O)C1=CCOCC1 [Compound 9]; 0
CC(C)Oc1cc(-n2c(=O)on(C(=O)N(c3ccc(F)cc3)C(C)C)c2=O)c(Cl)cc1Cl [Compound 43]; 0
CC(C)C(=O)Cn1c(=O)on(C(=O)N(c2ccc(Cl)cc2)C(C)C)c1=O [Compound 487]; 0
Cc1ccccc1Cn1c(=O)on(C(=O)N(c2ccc(F)cc2)C(C)C)c1=O [Compound 88]; 0
CC(C)N(C(=O)n1oc(=O)n(-c2ccc(OC(F)(F)F)cc2)c1=O)C1=CCOCC1 [Compound 13]; 2

Using the record for CC(C)N(C(=O)n1oc(=O)n(C2CCCCCC2)c1=O)C1=CCCCC1 [Compound 428] , report its B. signalgrass plant response rating.
0

Consider next the compound CC(C)N(C(=O)n1oc(=O)n(Cc2cccs2)c1=O)c1ccc(F)cc1 [Compound 80] in the same way.
0

Consider next the compound CC(C)N(C(=O)n1oc(=O)n(Cc2cccs2)c1=O)c1ccccc1 [Compound 103] in the same way.
0

Consider next the compound CC(C)N(C(=O)n1oc(=O)n(CCc2ccccc2)c1=O)c1ccc(F)cc1F [Compound 508] in the same way.
3

----------
test system: duck salad; assay: Test B flood test duck salad; type: in vivo, Heteranthera limosa; conditions: Rate 62 g/ha, headed Pre-emergence (flood test species); scale 0 to 10 (0 no effect, 10 complete control)
Below, each entry is listed with its recorded Ducksalad plant response rating.
Answer with the value's number alone.

CC(C)N(C(=O)n1oc(=O)n(C2CCCCO2)c1=O)c1ccc(F)cc1 (centres unmarked); 0
CC(C)=CCn1c(=O)on(C(=O)N(c2ccc(F)cc2)C(C)C)c1=O; 0
CCCCn1c(=O)on(C(=O)N(c2ccc(F)cc2)C(C)C)c1=O; 0
CC(C)N(C(=O)n1oc(=O)n(CC(=O)OC(C)(C)C)c1=O)c1ccc(F)cc1; 0

Next compound, please.
Using the record for Cc1c(-n2c(=O)on(C(=O)N(c3ccc(F)cc3F)C(C)C)c2=O)ccc2ccccc12 , report its Ducksalad plant response rating.
0

----------
tested on: pigweed; test: Test B pre/postemergence pigweed; type: in vivo, Amaranthus retroflexus; conditions: Preemergence, Rate 250 g/ha; scale 0 to 10, 0 is no effect, 10 is complete control
reportedEndpoint: Redroot pigweed plant response rating
Answer with the value's number alone.

# count of solved cases: 5
COC(=O)C(C)n1c(=O)on(C(=O)N(c2ccc(F)cc2F)C(C)C)c1=O (stereo not drawn) [Compound 463]; 10
CC(C)Cn1c(=O)on(C(=O)N(c2ccc(F)cc2)C(C)C)c1=O [Compound 169]; 8
COCC(OC)n1c(=O)on(C(=O)N(c2ccc(F)cc2)C(C)C)c1=O (stereo not drawn) [Compound 446]; 10
CC(C)N(C(=O)n1oc(=O)n(C(C)C2CC2)c1=O)c1ccc(F)cc1 (stereo not drawn) [Compound 404]; 10
CC(C)N(C(=O)n1oc(=O)n(Cc2ccco2)c1=O)c1ccc(F)cc1 [Compound 207]; 2

Using the record for Cc1cnn(C)c1-n1c(=O)on(C(=O)N(c2ccc(F)cc2)C(C)C)c1=O [Compound 125] , report its Redroot pigweed plant response rating.
0

----------
test system: blackgrass; assay: Test B pre/postemergence blackgrass; type: in vivo, Alopecurus myosuroides; conditions: Preemergence, Rate 250 g/ha; scale of 0 to 10 where 0 is no effect and 10 is complete control
Below, each entry is listed with its recorded Blackgrass plant response rating.
Answer with the value's number alone.

CC(C)N(C(=O)n1oc(=O)n(C2CCC2)c1=O)c1ccc(Cl)cc1 [Compound 349]; 4

Record Cc1c(-n2c(=O)on(C(=O)N(c3ccc(F)cc3)C(C)C)c2=O)ccc2ccccc12 [Compound 338] : what is its Blackgrass plant response rating with blackgrass?
0

Consider next the molecule CC(C)N(C(=O)n1oc(=O)n(C2CCOCC2)c1=O)c1ccccc1 [Compound 416] in the same way.
10

Consider next the molecule CC(C)=CCn1c(=O)on(C(=O)N(c2ccc(F)cc2)C(C)C)c1=O [Compound 288] in the same way.
6
